Source listed as the supplement of paper PMC10065799.

- Assayed target: Fes (UniProt P07332)
- Sequence (P07332 whole entry, looked up): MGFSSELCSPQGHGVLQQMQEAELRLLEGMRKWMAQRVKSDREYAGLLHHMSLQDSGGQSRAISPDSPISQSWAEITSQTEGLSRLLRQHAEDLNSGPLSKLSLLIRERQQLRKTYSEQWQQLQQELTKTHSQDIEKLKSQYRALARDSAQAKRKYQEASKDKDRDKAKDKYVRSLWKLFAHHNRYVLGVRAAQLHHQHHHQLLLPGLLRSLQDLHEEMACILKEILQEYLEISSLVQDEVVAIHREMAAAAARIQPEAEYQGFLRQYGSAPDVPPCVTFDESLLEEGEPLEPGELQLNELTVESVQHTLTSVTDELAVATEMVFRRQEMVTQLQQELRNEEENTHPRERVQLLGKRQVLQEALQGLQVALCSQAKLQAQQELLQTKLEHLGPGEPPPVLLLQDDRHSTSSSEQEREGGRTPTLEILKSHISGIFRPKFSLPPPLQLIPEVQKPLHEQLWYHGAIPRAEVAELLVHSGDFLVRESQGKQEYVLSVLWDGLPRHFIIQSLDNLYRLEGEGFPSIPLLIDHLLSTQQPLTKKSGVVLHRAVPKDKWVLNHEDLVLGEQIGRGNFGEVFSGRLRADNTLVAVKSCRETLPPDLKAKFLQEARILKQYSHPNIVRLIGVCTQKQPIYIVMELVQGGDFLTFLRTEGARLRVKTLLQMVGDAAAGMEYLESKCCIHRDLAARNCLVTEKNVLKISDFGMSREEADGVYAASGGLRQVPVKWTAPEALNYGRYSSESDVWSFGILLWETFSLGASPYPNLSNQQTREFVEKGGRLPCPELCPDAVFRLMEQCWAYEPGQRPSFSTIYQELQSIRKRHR
- Test protocol: phosphorylation enrichment, bacterial display (enrichment ratio); higher = better substrate or ligand; peptides without Tyr show the background
Measured endpoint: phosphorylation enrichment

Example entries begin here.
Sequence content: GCKNHYDKDKP [THAP1_Y14_R13H]
Measured endpoint: phosphorylation enrichment
Value reported: 1.02
//
Sequence content: RYVTRSIYNRE [HLA-DQB1_Y62_Y62S]
Measured endpoint: phosphorylation enrichment
Value reported: 1.1
//
Sequence content: GDEEDYFEIPG [EGFR_opt_F_2015]
Measured endpoint: phosphorylation enrichment
Value reported: 1.22

# input Which phosphorylation enrichment value belongs to EKQVAYCPSGK [ROS1_Y2323] ?
# output 0.795

# input Also AEFGLYGAMVR [VSX2_Y222_YF] , if possible.
# output 1.21

# input Would you kindly repeat that for RNDRVYQPLRD [CD3D_Y149_Q147R] ?
# output 0.785

# input Proceed to GYKVRYATWSI [FGFR1_Y210]
# output 1.18

# input What do we get for ALAAPYVLYPG [CEFIP_Y1332] ?
# output 0.799

# input One more sequence: SVTCTYSPALF [TP53_Y126_N131Y_YF]
# output 1.74

====

Listed here: items and their measured SH2 binding enrichment.
- Assayed target: c-Src SH2;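 also: peptide library displayed on the E. coli surface as eCPX fusions, selected cells deep-sequenced, score is each peptide's frequency after selection divided by its frequency in the input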
- Test protocol: SH2 binding enrichment of the phosphorylated peptide, bacterial display (enrichment ratio); higher = better substrate or ligand; peptides without Tyr show the background
The response must contain the number and no unit.

Sequence content: MEYLPYGSLRD [JAK2_Y934]
SH2 binding enrichment: 0.498
//
Sequence content: DAPVVYLGSFG [PRAG1_Y132_R137G]
SH2 binding enrichment: 0.479
//
Sequence content: KKHFSYAWPFY [BRDT_Y291]
SH2 binding enrichment: 1.52
//
Sequence content: LVTCSYLLGNS [LMNA_Y646_R644C]
SH2 binding enrichment: 0.37
//
Sequence content: LEGEEYRMSGE [KRT3_Y511]
SH2 binding enrichment: 0.461

# input So what SH2 binding enrichment did MKKMHYVDPDH [ST3GAL5_Y99] get with c-Src SH2?
# output 0.548

# input Repeat for the following sequence: GYGGGYGGVLT [KRT19_Y65_A60G]
# output 0.448

# input Input TFRPPYFHRNC [HGD_Y333_YF]
# output 1.09

# input Quick one: RRIEKYVDQGK [IRAK3_Y61_H57R]
# output 0.535

# input Cool, now PTTKTYFPQFD [HBA1_Y43_H46Q]
# output 0.59

# input Same lookup for RLSVDCGKKSK [TUBA4A_Y161_Y161C] , please.
# output 0.884

# input Thanks! And KWKQKYEESQS [MYH6_Y1462_E1457K] ?
# output 1.04

# input Another: RSRSSYTHSLN [MYCT1_Y116_G119S]
# output 0.435

# input Let us now turn to QAPPVYLDVLG [NTRK1_Y791]
# output 0.723

# input One more sequence: SFNNKYGMVAQ [APOB_Y276_K273N_YF]
# output 0.435

====

Parameter phosphorylation enrichment: see the listing below.
- Assayed target: Fyn (UniProt P06241)
- Sequence (P06241 whole entry, looked up): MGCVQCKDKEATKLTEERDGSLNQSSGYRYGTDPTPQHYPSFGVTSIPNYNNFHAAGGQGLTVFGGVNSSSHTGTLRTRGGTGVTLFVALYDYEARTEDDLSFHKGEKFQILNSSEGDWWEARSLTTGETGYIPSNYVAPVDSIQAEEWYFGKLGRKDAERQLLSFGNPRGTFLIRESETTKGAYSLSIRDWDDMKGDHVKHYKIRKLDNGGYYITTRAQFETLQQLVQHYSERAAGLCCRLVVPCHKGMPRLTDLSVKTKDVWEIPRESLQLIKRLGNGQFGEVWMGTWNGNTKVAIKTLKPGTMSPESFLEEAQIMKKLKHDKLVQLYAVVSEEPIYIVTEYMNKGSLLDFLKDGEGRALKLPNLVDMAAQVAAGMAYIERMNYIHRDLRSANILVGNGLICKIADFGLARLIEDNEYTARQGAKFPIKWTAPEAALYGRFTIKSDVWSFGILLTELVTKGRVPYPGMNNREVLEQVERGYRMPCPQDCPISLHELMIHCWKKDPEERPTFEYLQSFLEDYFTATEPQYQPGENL
- Test protocol: phosphorylation enrichment, bacterial display (enrichment ratio); higher = better substrate or ligand; peptides without Tyr show the background

Worked examples, 10 sequences total:
Sequence content: LEISPYMLSGR [LRRK2_Y1718]
Value reported: 1.44
--
Sequence content: APNEFYDGDHD [HDAC3_Y414]
Value reported: 0.535
--
Sequence content: MALDRYVAICK [OR2B11_Y127]
Value reported: 0.464
--
Sequence content: CTTIHYIYMCN [TP53_Y234_N235I]
Value reported: 0.254
--
Sequence content: WVFNHYRCIIW [BRCA2_Y2624_W2626C_YF]
Value reported: 0.482
--
Sequence content: DYGSGYPNDPK [RNASEH2A_Y210]
Value reported: 0.474
--
Sequence content: GDNNIYVTKII [DLG1_Y349_S347N]
Value reported: 0.894
--
Sequence content: STEEQYRIRQV [EFHC1_Y115]
Value reported: 0.475
--
Sequence content: DEFLEHRRIVG [FAM221A_Y20_Y20H_YF]
Value reported: 0.425
--
Sequence content: ECKASCPGKIT [PRSS3_Y232_Y232C]
Value reported: 0.401

# input phosphorylation enrichment for IKIMGSSIRTI [IDS_Y490_Y490S] ?
# output 0.411

# input And then RLPSGYGLAFR [DLK1_Y262_YF] , what is it?
# output 0.549

# input Okay, and SGPRRYTMAAL [TTR_Y125_I127M] ?
# output 0.416

# input Further, for KVIDMYLMGCF [GABRB2_Y308_A304V] ?
# output 0.535

# input And for EEEPVYEAEPE [HCLS1_Y360] ?
# output 0.765

# input Next sequence: PATYTYDEYKK [COL8A2_Y648]
# output 1.67
